The measurements presented in this section are drawn from patent US20110300138A1.

molecular target: T1, thyroid stimulating hormone receptor (full length human TSHR) (human, UniProt P16473 22-764); test: competitor ^125I-K1-70 IgG, TSHR coated tubes; 0.003 µg/mL in assay buffer
T1 construct: Full length TSHR coated onto plastic tubes (TSHR coated tubes, as in WO2004/050708A2); also called TSH receptor
Readout: Inhibition of binding (%)
Reply numerically in %, unit not repeated.

Solved entries (count: 3):
{"columns": ["Binder", "Readout Unit", "Inhibition of binding (%)"],
 "data": [
  ["K1-18 IgG (antibody, V domains shown, Human IgG1 kappa purified from hetero-hybridoma supernatant; it is not part of the secreted protein; also called human monoclonal TSHR autoantibody K1-18 (stimulating)) VH: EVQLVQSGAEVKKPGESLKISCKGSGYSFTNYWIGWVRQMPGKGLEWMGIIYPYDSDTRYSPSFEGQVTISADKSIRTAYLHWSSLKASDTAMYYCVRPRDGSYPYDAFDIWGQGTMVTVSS VL: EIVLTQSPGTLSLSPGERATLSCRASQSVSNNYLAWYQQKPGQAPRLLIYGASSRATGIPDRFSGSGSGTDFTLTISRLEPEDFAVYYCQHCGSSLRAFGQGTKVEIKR", "%", 17],
  ["K1-70 Fab (Fab, V domains shown) VH: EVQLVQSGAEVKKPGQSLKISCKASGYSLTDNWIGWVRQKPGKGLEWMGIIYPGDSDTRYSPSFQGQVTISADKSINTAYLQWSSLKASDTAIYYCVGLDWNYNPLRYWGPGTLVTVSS VL: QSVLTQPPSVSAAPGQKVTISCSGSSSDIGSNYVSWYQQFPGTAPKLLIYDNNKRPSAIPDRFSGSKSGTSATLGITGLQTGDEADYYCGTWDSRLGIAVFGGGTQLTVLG", "%", 32.7],
  ["K1-70 IgG (antibody, V domains shown, Human IgG1 lambda purified from hetero-hybridoma supernatant) VH: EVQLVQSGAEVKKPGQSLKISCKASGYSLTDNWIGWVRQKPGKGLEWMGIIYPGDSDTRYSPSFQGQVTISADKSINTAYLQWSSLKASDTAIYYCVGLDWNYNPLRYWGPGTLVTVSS VL: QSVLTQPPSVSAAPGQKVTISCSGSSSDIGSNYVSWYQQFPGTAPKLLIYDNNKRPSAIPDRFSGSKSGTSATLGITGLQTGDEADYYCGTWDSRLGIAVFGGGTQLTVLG", "%", 24]
]}

Give the measured Inhibition of binding (%) of K1-18 Fab (Fab, V domains shown) VH: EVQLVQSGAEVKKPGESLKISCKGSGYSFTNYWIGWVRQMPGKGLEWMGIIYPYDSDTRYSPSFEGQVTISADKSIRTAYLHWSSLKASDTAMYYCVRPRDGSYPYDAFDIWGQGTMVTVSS VL: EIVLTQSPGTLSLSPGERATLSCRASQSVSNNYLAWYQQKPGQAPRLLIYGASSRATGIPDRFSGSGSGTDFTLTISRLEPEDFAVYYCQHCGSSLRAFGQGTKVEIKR .
15.2
